Values from patent US10045974B2

- target.entity: BACE1 (Homo sapiens (Human))
- Sequence (P56817 46-501): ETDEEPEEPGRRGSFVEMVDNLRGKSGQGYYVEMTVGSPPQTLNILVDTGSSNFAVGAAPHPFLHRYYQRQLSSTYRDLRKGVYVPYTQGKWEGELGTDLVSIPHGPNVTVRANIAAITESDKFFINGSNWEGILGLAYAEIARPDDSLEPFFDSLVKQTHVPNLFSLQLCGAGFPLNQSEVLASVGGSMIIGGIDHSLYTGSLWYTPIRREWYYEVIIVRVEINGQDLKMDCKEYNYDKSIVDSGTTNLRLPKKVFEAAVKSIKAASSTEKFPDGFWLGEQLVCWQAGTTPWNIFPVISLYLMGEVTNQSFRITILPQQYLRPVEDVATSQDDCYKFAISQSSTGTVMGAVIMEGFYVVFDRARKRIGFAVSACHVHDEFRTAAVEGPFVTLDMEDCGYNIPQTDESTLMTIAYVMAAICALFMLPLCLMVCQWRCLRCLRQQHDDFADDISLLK
- procedure.summary: BACE1 efficacy assay (FRET-based, commercial BACE1 kit)
- Assay type: biochemical
- recorded.conditions: test compound 10 μM
measure: inhibition at 10 µM (%)

NC1=N[C@@](c2cc(NC(=O)c3cnc(C(F)F)cn3)ccc2F)(C(F)F)C(F)(F)CC1    103
NC1=N[C@@](c2cc(NC(=O)c3ccc(Cl)cn3)ccc2F)(C(F)F)C(F)(F)CC1    106
COc1ccc(C(=O)Nc2ccc(F)c([C@@]3(C(F)F)N=C(N)CCC3(F)F)c2)nc1    101
